Biological target: T1, IL-18 receptor (IL-18Rα/IL-18Rβ) on cells (HEK-Blue IL18R reporter cells, NK-92, KG-1) (human, UniProt Q13478 19-541; O95256 20-599)
T1 sequence (looked up) 1: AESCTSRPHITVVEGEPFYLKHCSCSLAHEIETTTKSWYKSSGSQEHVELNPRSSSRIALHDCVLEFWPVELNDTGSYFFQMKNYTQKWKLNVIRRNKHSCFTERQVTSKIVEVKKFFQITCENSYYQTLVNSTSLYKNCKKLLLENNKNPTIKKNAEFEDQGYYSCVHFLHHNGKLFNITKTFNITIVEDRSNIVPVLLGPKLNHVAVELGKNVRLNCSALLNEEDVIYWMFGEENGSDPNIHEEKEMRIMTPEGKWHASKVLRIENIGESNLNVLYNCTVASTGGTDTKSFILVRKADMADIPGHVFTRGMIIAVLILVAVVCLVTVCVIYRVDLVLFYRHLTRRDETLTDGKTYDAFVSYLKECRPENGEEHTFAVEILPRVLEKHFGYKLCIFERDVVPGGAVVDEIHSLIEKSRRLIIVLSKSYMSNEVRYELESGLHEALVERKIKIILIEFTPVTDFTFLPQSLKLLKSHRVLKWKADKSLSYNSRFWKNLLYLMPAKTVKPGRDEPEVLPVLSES
T1 sequence (looked up) 2: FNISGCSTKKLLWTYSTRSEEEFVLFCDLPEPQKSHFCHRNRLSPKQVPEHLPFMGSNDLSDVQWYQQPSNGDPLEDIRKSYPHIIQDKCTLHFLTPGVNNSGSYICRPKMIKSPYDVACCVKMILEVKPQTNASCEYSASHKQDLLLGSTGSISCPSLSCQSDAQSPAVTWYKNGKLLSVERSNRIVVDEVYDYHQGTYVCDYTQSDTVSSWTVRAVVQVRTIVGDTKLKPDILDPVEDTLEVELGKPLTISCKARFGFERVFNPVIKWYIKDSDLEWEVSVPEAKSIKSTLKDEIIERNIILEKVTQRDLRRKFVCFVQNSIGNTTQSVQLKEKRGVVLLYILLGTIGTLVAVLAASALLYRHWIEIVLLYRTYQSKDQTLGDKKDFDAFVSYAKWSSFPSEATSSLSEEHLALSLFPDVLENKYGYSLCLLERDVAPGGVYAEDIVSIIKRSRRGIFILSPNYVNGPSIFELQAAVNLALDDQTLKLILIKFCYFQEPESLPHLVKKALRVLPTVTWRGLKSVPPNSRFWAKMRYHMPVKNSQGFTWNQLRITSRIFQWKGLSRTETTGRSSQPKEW
Assay: cell-based or functional assay
Give EC50, IFNγ stimulation, NK92 cells for every item shown.
A number alone suffices; assume pM.

Which EC50, IFNγ stimulation, NK92 cells reading was recorded for the binder IL-18 polypeptide of SEQ ID NO: 5 (E6K, V11I, C38A, K53A, T63A, C68A, C76A, M86C, C127A) (ligand) YFGKLKSKLSIIRNLNDQVLFIDQGNRPLFEDMTDSDARDNAPRTIFIISMYADSQPRGMAVAISVKAEKISTLSAENKIISFKECNPPDNIKDTKSDIIFFQRSVPGHDNKMQFESSSYEGYFLAAEKERDLFKLILKKEDELGDRSIMFTVQNED ?
75

Which EC50, IFNγ stimulation, NK92 cells reading was recorded for the binder IL-18 polypeptide of SEQ ID NO: 62 (E6K, C38A, K53A, C127A) (ligand) YFGKLKSKLSVIRNLNDQVLFIDQGNRPLFEDMTDSDARDNAPRTIFIISMYADSQPRGMAVTISVKCEKISTLSCENKIISFKEMNPPDNIKDTKSDIIFFQRSVPGHDNKMQFESSSYEGYFLAAEKERDLFKLILKKEDELGDRSIMFTVQNED ?
26

Which EC50, IFNγ stimulation, NK92 cells reading was recorded for the binder IL-18 polypeptide C145 (ligand, also called V11I, C38A, K53A, S55A, C76A, C127A) YFGKLESKLSIIRNLNDQVLFIDQGNRPLFEDMTDSDARDNAPRTIFIISMYADAQPRGMAVTISVKCEKISTLSAENKIISFKEMNPPDNIKDTKSDIIFFQRSVPGHDNKMQFESSSYEGYFLAAEKERDLFKLILKKEDELGDRSIMFTVQNED ?
87

Which EC50, IFNγ stimulation, NK92 cells reading was recorded for the binder IL-18 polypeptide C159 (ligand, also called V11I, C38A, K53A, C76A, H109A, C127A) YFGKLESKLSIIRNLNDQVLFIDQGNRPLFEDMTDSDARDNAPRTIFIISMYADSQPRGMAVTISVKCEKISTLSAENKIISFKEMNPPDNIKDTKSDIIFFQRSVPGADNKMQFESSSYEGYFLAAEKERDLFKLILKKEDELGDRSIMFTVQNED ?
123

Which EC50, IFNγ stimulation, NK92 cells reading was recorded for the binder IL-18 polypeptide of SEQ ID NO: 6 (E6K, V11I, C38A, K53A, T63A, C68A, C76A, D98C, C127A) (ligand) YFGKLKSKLSIIRNLNDQVLFIDQGNRPLFEDMTDSDARDNAPRTIFIISMYADSQPRGMAVAISVKAEKISTLSAENKIISFKEMNPPDNIKDTKSCIIFFQRSVPGHDNKMQFESSSYEGYFLAAEKERDLFKLILKKEDELGDRSIMFTVQNED ?
1370

Which EC50, IFNγ stimulation, NK92 cells reading was recorded for the binder IL-18 polypeptide C160 (ligand, also called V11I, C38A, K53A, C76A, D110A, C127A) YFGKLESKLSIIRNLNDQVLFIDQGNRPLFEDMTDSDARDNAPRTIFIISMYADSQPRGMAVTISVKCEKISTLSAENKIISFKEMNPPDNIKDTKSDIIFFQRSVPGHANKMQFESSSYEGYFLAAEKERDLFKLILKKEDELGDRSIMFTVQNED ?
28

Which EC50, IFNγ stimulation, NK92 cells reading was recorded for the binder IL-18 polypeptide C144 (ligand, also called V11I, C38A, K53A, T63A, C76A, C127A) YFGKLESKLSIIRNLNDQVLFIDQGNRPLFEDMTDSDARDNAPRTIFIISMYADSQPRGMAVAISVKCEKISTLSAENKIISFKEMNPPDNIKDTKSDIIFFQRSVPGHDNKMQFESSSYEGYFLAAEKERDLFKLILKKEDELGDRSIMFTVQNED ?
12

Which EC50, IFNγ stimulation, NK92 cells reading was recorded for the binder IL-18 polypeptide C148 (ligand, also called F2A, V11I, C38A, K53A, C76A, C127A) YAGKLESKLSIIRNLNDQVLFIDQGNRPLFEDMTDSDARDNAPRTIFIISMYADSQPRGMAVTISVKCEKISTLSAENKIISFKEMNPPDNIKDTKSDIIFFQRSVPGHDNKMQFESSSYEGYFLAAEKERDLFKLILKKEDELGDRSIMFTVQNED ?
256

Which EC50, IFNγ stimulation, NK92 cells reading was recorded for the binder IL-18 polypeptide C161 (ligand, also called K8R, V11I, C38A, C76A, Q103E, C127A) YFGKLESRLSIIRNLNDQVLFIDQGNRPLFEDMTDSDARDNAPRTIFIISMYKDSQPRGMAVTISVKCEKISTLSAENKIISFKEMNPPDNIKDTKSDIIFFERSVPGHDNKMQFESSSYEGYFLAAEKERDLFKLILKKEDELGDRSIMFTVQNED ?
57

Which EC50, IFNγ stimulation, NK92 cells reading was recorded for the binder IL-18 polypeptide of SEQ ID NO: 57 (E6K, C38S, K53A) (ligand) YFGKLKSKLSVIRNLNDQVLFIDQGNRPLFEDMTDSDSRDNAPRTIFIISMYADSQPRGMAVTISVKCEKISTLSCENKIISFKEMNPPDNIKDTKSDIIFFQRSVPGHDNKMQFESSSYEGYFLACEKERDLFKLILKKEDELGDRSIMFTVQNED ?
45

Which EC50, IFNγ stimulation, NK92 cells reading was recorded for the binder IL-18 polypeptide C158 (ligand, also called V11I, C38A, K53A, C76A, G108A, C127A) YFGKLESKLSIIRNLNDQVLFIDQGNRPLFEDMTDSDARDNAPRTIFIISMYADSQPRGMAVTISVKCEKISTLSAENKIISFKEMNPPDNIKDTKSDIIFFQRSVPAHDNKMQFESSSYEGYFLAAEKERDLFKLILKKEDELGDRSIMFTVQNED ?
73

Which EC50, IFNγ stimulation, NK92 cells reading was recorded for the binder IL-18 polypeptide of SEQ ID NO: 47 (C38S, C68S, C76S, C127S) (ligand) YFGKLESKLSVIRNLNDQVLFIDQGNRPLFEDMTDSDSRDNAPRTIFIISMYKDSQPRGMAVTISVKSEKISTLSSENKIISFKEMNPPDNIKDTKSDIIFFQRSVPGHDNKMQFESSSYEGYFLASEKERDLFKLILKKEDELGDRSIMFTVQNED ?
115
